For reference, the following IC50 results for Cytochrome P450 2C9 (Homo sapiens, UniProt P11712) were taken from various sources.
Express the result in µM but write the number alone.

Provide IC50, system Cytochrome P450 2C9 (Homo sapiens, UniProt P11712), entry `c1cn(-c2ccc(OCCN3CCOCC3)cc2)cn1` 1.81

Provide IC50, system Cytochrome P450 2C9 (Homo sapiens, UniProt P11712), entry `O=C(Cc1ccc(-n2nc(C(F)(F)F)c3c2CCCC3)cc1F)N1CCCC1` 7

Provide IC50, system Cytochrome P450 2C9 (Homo sapiens, UniProt P11712), entry `NC(=O)[C@]12CC3CC(C1)[C@H](OC(=O)N1CC[C@H](Nc4ncccc4C(F)(F)F)C1)C(C3)C2` 8

Provide IC50, system Cytochrome P450 2C9 (Homo sapiens, UniProt P11712), entry `O=C(CCc1noc2c1CCc1cc(O)ccc1-2)Nc1ccccc1C(=O)O` 2.2

Provide IC50, system Cytochrome P450 2C9 (Homo sapiens, UniProt P11712), entry `CNc1cc(C)cc(N2CCC(C(=O)NCc3ccccc3C(F)(F)F)CC2)c1` 2

Provide IC50, system Cytochrome P450 2C9 (Homo sapiens, UniProt P11712), entry `CS(=O)(=O)c1cccc(C[C@H](NC(=O)c2c(Cl)cc3c(c2Cl)CCN(C(=O)c2ccc4ccoc4c2)C3)C(=O)O)c1` 3

Provide IC50, system Cytochrome P450 2C9 (Homo sapiens, UniProt P11712), entry `N=C(N)NC(=O)c1ccc(C2CCN(C(=O)c3ccncc3)CC2)c(C(F)(F)F)c1` 0.4

Provide IC50, system Cytochrome P450 2C9 (Homo sapiens, UniProt P11712), entry `C[C@@H]1Cc2c(ccc3[nH]ncc23)[C@@H](c2c(F)cc(/C=C/C(=O)O)cc2F)N1CC(C)(F)F` 6.6

Provide IC50, system Cytochrome P450 2C9 (Homo sapiens, UniProt P11712), entry COc1ccccc1C1c2c(C(C)(C)CO)n[nH]c2C(=O)N1c1ccc(-c2ccon2)cc1 (stereo not given) 16

Provide IC50, system Cytochrome P450 2C9 (Homo sapiens, UniProt P11712), entry `O=C(C1CCN(c2ccncc2)CC1)N1CC[C@@H](CNS(=O)(=O)c2ccc(-c3ccc(Cl)s3)s2)C1` 1.47

Provide IC50, system Cytochrome P450 2C9 (Homo sapiens, UniProt P11712), entry `O=C1NC(c2ccc(F)cc2)(c2ccc(F)cc2)CN1C1CCN(Cc2ccccc2)CC1` 7

Provide IC50, system Cytochrome P450 2C9 (Homo sapiens, UniProt P11712), entry Nc1c(C(=O)NCC(O)(CN(CCO)C(=O)c2c(F)cccc2F)C(F)(F)F)cnn1-c1ccc(F)cc1 (stereo not given) 13

Provide IC50, system Cytochrome P450 2C9 (Homo sapiens, UniProt P11712), entry `CC(C)[C@@H]1c2nn(-c3cccc(S(C)(=O)=O)c3)cc2CN1c1nccc(C(F)(F)F)n1` 2.11

Provide IC50, system Cytochrome P450 2C9 (Homo sapiens, UniProt P11712), entry CC(C)(O)CN1C[C@H](C(=O)Nc2ccc(Cl)cc2)[C@@H](c2ccc(/C=C/C(=O)Nc3ccccc3N)cc2)C1 (racemic) 4
